- ASSAYED_SYSTEM: Sushi domains (SD1/2) protein
- TEST: Fluorescence polarization (FP) competition assay with AJAP-1probe, calculated Ki
- Assay type: binding
- CONDITION_INFO: Table 7, Ala-, D-amino acids and N-methylation scans of APPWT; read-out: Ki (nM) mean ± SEM
Non-standard residues stand in square brackets, D forms with d. Residues, ends and D or L forms follow the SMILES beside them. NMeW = CN[C@@H](Cc1c[nH]c2ccccc12)C(=O)O; NMeE = CN[C@@H](CCC(=O)O)C(=O)O
MEASURED_ENDPOINT: Ki (nM)
# unit: nM | format: bare number

Give Ki for CC(=O)N[C@@H](CCC(=O)O)C(=O)N[C@@H](CC(=O)O)C(=O)N[C@@H](CC(=O)O)C(=O)N[C@@H](C)C(=O)N[C@@H](CC(=O)O)C(=O)N[C@H](C(=O)N[C@@H](Cc1c[nH]c2ccccc12)C(=O)N[C@@H](Cc1c[nH]c2ccccc12)C(=O)NCC(=O)NCC(=O)N[C@@H](C)C(=O)N[C@@H](CC(=O)O)C(=O)N[C@H](C(=O)N[C@@H](CC(=O)O)C(N)=O)[C@@H](C)O)C(C)C (Ac-EDDADVWWGGADTD-NH2)
660

Give Ki for CC(=O)N(C)[C@@H](CCC(=O)O)C(=O)N[C@@H](CC(=O)O)C(=O)N[C@@H](CC(=O)O)C(=O)N[C@@H](CO)C(=O)N[C@@H](CC(=O)O)C(=O)N[C@H](C(=O)N[C@@H](Cc1c[nH]c2ccccc12)C(=O)N[C@@H](Cc1c[nH]c2ccccc12)C(=O)NCC(=O)NCC(=O)N[C@@H](C)C(=O)N[C@@H](CC(=O)O)C(=O)N[C@H](C(=O)N[C@@H](CC(=O)O)C(N)=O)[C@@H](C)O)C(C)C (Ac-[NMeE]DDSDVWWGGADTD-NH2)
670

Give Ki for CC(=O)N[C@@H](CCC(=O)O)C(=O)N[C@@H](CC(=O)O)C(=O)N[C@@H](CC(=O)O)C(=O)N[C@@H](CO)C(=O)N[C@@H](CC(=O)O)C(=O)N[C@H](C(=O)N(C)[C@@H](Cc1c[nH]c2ccccc12)C(=O)N[C@@H](Cc1c[nH]c2ccccc12)C(=O)NCC(=O)NCC(=O)N[C@@H](C)C(=O)N[C@@H](CC(=O)O)C(=O)N[C@H](C(=O)N[C@@H](CC(=O)O)C(N)=O)[C@@H](C)O)C(C)C [EDDSDV(N-Me-W)WGGADTD] (Ac-EDDSDV[NMeW]WGGADTD-NH2)
85600
